Molecular target: Histone deacetylase
Assay: Inhibition of HDAC in human HeLa cell nuclear extract after 30 mins by fluorescence microplate reader
Type: protein assay
OUTCOME MEASURE: IC50
Answer with the figure and its unit, nothing else.

Task item: Consider the compound `CC[C@H](C)[C@H](NC(=O)OC(C)(C)C)C(=O)N1Cc2cc(OCC(=O)NO)ccc2C[C@H]1C(=O)Nc1ccc(OC)cc1` and give its measured IC50.
Reply: 0.058 µM

Task item: Can you handle `CC[C@H](C)[C@H](NC(=O)[C@@H](NC(=O)OC(C)(C)C)C(C)C)C(=O)N1Cc2cc(OCC(=O)NO)ccc2C[C@H]1C(=O)Nc1ccc(OC)cc1` next?
Reply: 0.128 µM

Task item: Next up: `CC[C@H](C)[C@@H](CN1Cc2cc(OCC(=O)NO)ccc2C[C@H]1C(=O)Nc1ccc(OC)cc1)NC(=O)CC(C)(C)C`
Reply: 0.297 µM

Task item: Then `CC[C@H](C)[C@H](NC(=O)[C@@H]1CCCN1)C(=O)N1Cc2cc(OCC(=O)NO)ccc2C[C@H]1C(=O)Nc1ccc(OC)cc1.Cl` ?
Reply: 0.108 µM

Task item: Again, but for `CC[C@H](C)[C@@H](CN1Cc2cc(OCC(=O)NO)ccc2C[C@H]1C(=O)Nc1ccc(OC)cc1)NC(=O)OC(C)(C)C`
Reply: 0.447 µM

Task item: Please do the same for `CC[C@H](C)[C@H](NC(=O)C1CCNCC1)C(=O)N1Cc2cc(OCC(=O)NO)ccc2C[C@H]1C(=O)Nc1ccc(OC)cc1.Cl` as well.
Reply: 0.071 µM

Task item: // query: `CC[C@H](C)[C@H](NC(=O)[C@@H](N)C(C)C)C(=O)N1Cc2cc(OCC(=O)NO)ccc2C[C@H]1C(=O)Nc1ccc(OC)cc1.Cl`
Reply: 0.073 µM

Task item: Repeat with `CC[C@H](C)[C@H](NC(=O)[C@@H]1CCCN1C(=O)OC(C)(C)C)C(=O)N1Cc2cc(OCC(=O)NO)ccc2C[C@H]1C(=O)Nc1ccc(OC)cc1`
Reply: 0.065 µM

Task item: Field entry: `CC[C@H](C)[C@H](NC(=O)C1CCN(C(=O)OC(C)(C)C)CC1)C(=O)N1Cc2cc(OCC(=O)NO)ccc2C[C@H]1C(=O)Nc1ccc(OC)cc1`
Reply: 0.214 µM
